The measurements presented in this section are drawn from patent US7732475B2.

Answer each item with its documented IC50.
Target: HDAC2 (Homo sapiens, UniProt Q92769)
Sequence (Q92769 with tags, fused parts or gaps): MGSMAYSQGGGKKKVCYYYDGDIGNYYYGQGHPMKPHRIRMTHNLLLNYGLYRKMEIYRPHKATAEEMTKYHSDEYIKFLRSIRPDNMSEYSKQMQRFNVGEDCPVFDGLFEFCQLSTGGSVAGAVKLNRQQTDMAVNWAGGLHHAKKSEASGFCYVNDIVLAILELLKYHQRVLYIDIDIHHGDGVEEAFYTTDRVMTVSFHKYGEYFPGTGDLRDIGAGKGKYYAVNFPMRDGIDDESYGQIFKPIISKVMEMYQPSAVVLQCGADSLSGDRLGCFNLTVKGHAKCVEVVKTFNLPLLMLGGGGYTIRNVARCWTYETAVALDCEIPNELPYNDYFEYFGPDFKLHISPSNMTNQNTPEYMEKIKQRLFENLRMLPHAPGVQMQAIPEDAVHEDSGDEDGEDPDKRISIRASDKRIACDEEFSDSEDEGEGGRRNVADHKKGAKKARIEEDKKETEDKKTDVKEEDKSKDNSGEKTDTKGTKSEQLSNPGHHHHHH
Test: HDAC2 fluorescence inhibition assay (tBoc-Lys(Ac)-AMC)

smiles.repr: Nc1ccccc1NC(=O)c1ccc(Cn2cc3ccc(F)cc3n2)cc1
test.result: 50 to 100 nM
//
smiles.repr: Nc1ccccc1NC(=O)c1ccc(Cn2[nH]c(=O)c3ccccc32)cc1
test.result: 50 to 100 nM

Provide the reported IC50 of each entry below, same order.
1. Nc1ccccc1NC(=O)c1ccc(Cn2nc3ccc(C(F)(F)F)cc3c2N)cc1
2. CCc1c2ccccc2nn1Cc1ccc(C(=O)Nc2ccccc2N)cc1
3. Nc1ccccc1NC(=O)c1ccc(Cn2cc3c(Cl)cccc3n2)cc1

["≤ 50 nM", "100 to 500 nM", "≤ 50 nM"]
